Tested on: SNB-75 CNS
Protocol text: NCI-60 one-dose screen, 48 h
Condition context: 10 µM unless noted
Compounds without any hit were thinned out: in the full panel of roughly 83,000, 20% have a hit. Activity calls are given as the source filed them. How the source made its calls: active means growth percent below 10; inactive means the rest.
Just give me one of these, please: y = active, n = inactive

How did this test come out for COc1ccc(C2NC(=O)Nc3ccccc32)c(OC)c1 (centres undefined) ?
n

Item: `O=[N+]([O-])c1cccc(/C=N\Nc2ccccc2)c1`
n

Next entry: `C=C(C)[C@@H]1CC[C@]2(c3nnc(-c4ccncc4)o3)CC[C@]3(C)[C@H](CC[C@@H]4[C@@]5(C)CCC(=O)NC(C)(C)[C@@H]5CC[C@]43C)[C@@H]12`
n
